test system: IGROV1 ovarian; assay: NCI-60 one-dose screen, 48 h (100 = growth as untreated, 0 = no growth, -100 = all killed); settings: 10 µM unless noted
This is part of a sample that, as a whole, favours compounds with a hit. Of some 83,000 tested, about 20% had one in any assay. The source made the active and inactive calls. Rule for the calls: active = growth percent below 10; inactive = the rest.
Readout: growth

Reported growth for COCCOc1cc2ncnc(N3CCN(c4ncc(S(=O)(=O)N5CCCCC5)cn4)CC3)c2cc1OCCOC was 99.2% (inactive)

// sample CCC(C(=O)[C@@H](C)[C@@H](O)[C@H](C)[C@@H]1O[C@@H]([C@@H](CC)C(=O)ONC(=O)c2ccccc2)CC[C@@H]1C)[C@H]1O[C@]2(C=CC(=O)[C@]3(CC[C@@](C)([C@H]4CC[C@](O)(CC)[C@H](C)O4)O3)O2)[C@H](C)C[C@@H]1C (stereo partly drawn) , its growth was -76.2% (active)

# growth (molecule: O=C(O)c1ccc(-n2cc(/C=N/Nc3ccccc3)c(-c3ccc(F)cc3F)n2)cc1 ) is 52.6% (inactive)

growth for O=c1c2cnn(-c3ccccc3)c2n2c(CN3CCOCC3)nnc2n1-c1ccccc1 is 109% (inactive)

Entry CCOC(=O)C#Cc1c(C(=O)OCC)nnn1Cc1ccc([N+](=O)[O-])cc1 — recorded growth = 89.6% (inactive)

Record summary for NC(=O)C(=O)c1ccccc1NC=O : reported growth = 94.8% (inactive)

The recorded growth for Nc1nc2ccccc2c2c(=O)c3cccc(Cl)c3sc12 is 73.8% (inactive)

Summary for this molecule, C=C(C)[C@@H]1CC[C@]2(CO)CC[C@]3(C)[C@H](CC[C@@H]4[C@@]5(C)CC[C@H](NCO)C(C)(C)[C@@H]5CC[C@]43C)[C@@H]12 : growth is -94.1% (active)

* * *

system: SN12C renal; experiment: NCI-60 one-dose screen, 48 h (100 = growth as untreated, 0 = no growth, -100 = all killed); conditions: 10 µM unless noted
This is part of a sample that, as a whole, favours compounds with a hit. Of some 83,000 tested, about 20% had one in any assay.
The threshold is 70%. Values of growth beneath it are tagged Fulfilled; values meeting or exceeding it are tagged Not fulfilled.

stdin: Confirm or reject: growth of CCN(CC)CCCCCNc1cc(OC(=O)c2ccc(Cl)cc2)cc2cccnc12 lies strictly below 70%
stdout: Not fulfilled

stdin: Regarding CCOc1nc(-c2ccccc2)cc2c(O)c(C(=O)N/N=C/c3ccccc3)[nH]c(=O)c12 , kindly confirm whether its growth is beneath 70%.
stdout: Not fulfilled

stdin: For this compound, is growth lower than 70%? CCOC(=O)c1ccc2c(c1)nc(-c1ccccc1)n2C1CCCCC1
stdout: Not fulfilled

stdin: Quick check: growth of Cc1ccc(C[P+](c2ccccc2)(c2ccccc2)c2ccccc2)cc1 under 70%?
stdout: Fulfilled

stdin: Take the compound COc1ccc(C2=Nc3c(N)nc(N)nc3NC(c3cccc(Nc4ccnc5cc(C(F)(F)F)ccc45)c3)C2)cc1 (stereo not given) and say whether its growth is less than 70%.
stdout: Not fulfilled

stdin: Lab note: growth threshold 70%. Does this compound come in strictly under it? CN(C)c1ccc(C(=O)OCCCCCCl)cc1
stdout: Not fulfilled

stdin: Say whether its growth is strictly beneath 70%. Entry: COC1=CC(c2ccc[nH]2)=N/C1=C\c1[nH]c(C)c(CC(=O)NCc2ccccc2)c1C
stdout: Fulfilled

stdin: Item CCN(CC)CC(O)COc1c(Br)c(Br)c(Br)c2c1OC(C)(C)C2 (stereo not given) : growth beneath 70%, strictly?
stdout: Not fulfilled

stdin: Please state whether growth is below 70% for N#CC1=C(N)Oc2c(c(=O)[nH]c3ccc(Cl)cc23)C12C(=O)c1ccccc1C2=O
stdout: Not fulfilled

stdin: Quick check: growth of Fc1ccc(CNc2c3ccccc3nc3ccccc23)c(F)c1 under 70%?
stdout: Fulfilled

stdin: Record COc1ccc(CNc2c3ccccc3nc3ccccc23)cc1 : is its growth strictly below 70%?
stdout: Fulfilled

stdin: Does this compound meet the criterion growth < 70%? COc1ccc(/C=C(\C#N)n2nnc3cc(Cl)ccc32)cc1
stdout: Fulfilled

stdin: Say whether its growth is strictly beneath 70%. Entry: CCC(=C(c1ccc(OCCN2CCCCC2)cc1)c1ccc(OCCN2CCCCC2)cc1)c1ccc(Cl)cc1
stdout: Fulfilled

stdin: Strictly below 70%: is that where growth of CCCCNC(=O)Oc1ccc(/C(=C(/C)Cc2ccc(OC)cc2)c2ccc(OCCN3CCCC3)cc2)cc1 sits?
stdout: Not fulfilled

stdin: Say whether its growth is strictly beneath 70%. Entry: Nc1c(C(=O)Nc2ccncc2)sc2nc3c(cc12)C(O)CCC3 (stereo not given)
stdout: Not fulfilled

stdin: Check if growth falls below 70% for N#CC1=C(N)Oc2c(ccc3ccccc23)C1c1ccccc1 (stereo not given) .
stdout: Fulfilled

stdin: Given CCOC(=O)c1cc(C(=O)c2cc(OC)c(OC)c(OC)c2)n2ncccc12 , is recorded growth strictly lower than 70%?
stdout: Fulfilled

stdin: hey, is growth for O=C1/C(=C/c2cn(-c3ccccc3)nc2-c2ccccc2)SC(=S)N1C1CCCCC1 lower than 70% or not?
stdout: Not fulfilled

stdin: API: query returns whether the compound falls strictly under 70% in growth. Query: Nc1cnc(C(=O)NNc2nc3cc(F)ccc3n3cccc23)cn1
stdout: Fulfilled

stdin: Item CCn1c(SCC(=O)N/N=C(\C)c2ccc(Cl)cc2)nc2c1c(=O)n(C)c(=O)n2C : growth beneath 70%, strictly?
stdout: Not fulfilled

stdin: hey, is growth for COc1ccc(/C=C/C(=O)c2cc3c(N)c(C(=O)Nc4cccc5ccccc45)sc3nc2C)cc1 lower than 70% or not?
stdout: Not fulfilled

stdin: Does NC(N)=NCCCCCNc1noc(Cc2c[nH]c3cc(Br)ccc23)n1 have growth strictly under 70%?
stdout: Fulfilled

stdin: Quick check: does COc1ccc(/C=N/NC(=O)c2ccc(-n3cc(-c4ccccc4)nn3)cc2)cc1OC have growth under 70%?
stdout: Not fulfilled

stdin: Does the reported growth of the following compound sit strictly below 70%? CCNCCNc1cc(-c2ccc(C(F)(F)F)cc2)c(C#N)c2nc3ccccc3n12
stdout: Fulfilled

stdin: Criterion: growth strictly below 70%. Is it met by CC(=O)n1nc(C(=O)OC(C)(C)c2ccccc2)c2ccccc21 ?
stdout: Not fulfilled

stdin: Determine if O=S(=O)(NCCCNc1nccc(-c2c(-c3ccc(F)c(O)c3)nc3sccn23)n1)c1ccccc1 shows growth strictly lower than 70%.
stdout: Fulfilled

stdin: Quick check: growth of Clc1ccc2c(NC3CCC(N4CCOCC4)CC3)ccnc2c1 (stereo not given) under 70%?
stdout: Not fulfilled

stdin: API: query returns whether the compound falls strictly under 70% in growth. Query: O=C(Nc1nc2cc(C(=O)N3CCN(C(c4ccccc4)c4ccccc4)CC3)ccc2o1)c1ccc(NC2CCCCC2)c([N+](=O)[O-])c1
stdout: Fulfilled

stdin: Please indicate whether the reported growth of CCC(C)N(CCNc1cc(OC)cc2cccnc12)CC(C)C (stereo not given) is strictly below 70%.
stdout: Not fulfilled

stdin: For this compound, is growth lower than 70%? CCOC(=O)c1cc(C)n(-c2ccc(C(=O)O)cc2)c1C
stdout: Not fulfilled

stdin: Is the reported growth for O=C1c2ccc3c4c5ccc(c24)C(=O)N1CCCOCCCCOCCCNCc1ccc(cc1)CNCCCOCCCCOCCCN(C3=O)C5=O strictly below 70%?
stdout: Fulfilled

stdin: Does the reported growth of the following compound sit strictly below 70%? O=C(CN1C(=O)S/C(=C\c2ccccc2)C1=O)Nc1ncc(Cc2ccccc2Cl)s1
stdout: Not fulfilled

stdin: Check if growth falls below 70% for COc1cc(OC)c(/C=C/C(=O)c2c(OC)cccc2OC)c(OC)c1 .
stdout: Fulfilled

stdin: Find out if reported growth for O=S(=O)(Nc1cc(F)cc(Cl)c1)c1ccc(-c2cnc(C3CC3)o2)cc1 is less than 70%
stdout: Fulfilled

stdin: Could you please tell me whether growth recorded for Cc1ccc(/C=C2\COc3ccc(O)cc3C2=O)cc1 is less than 70%?
stdout: Not fulfilled

stdin: Hello, is growth of the following compound strictly smaller than 70%? C=C(C)[C@@H]1CCC[C@]2(COS(=O)(=O)c3ccc(C)cc3)CC[C@]3(C)[C@@H](CC[C@@H]4[C@@]5(C)CCCNC(C)(C)[C@@H]5CC[C@]43C)[C@@H]12
stdout: Fulfilled

stdin: For COc1cc(OC)c(NC(=O)c2cc3ccccc3cc2O)cc1Cl , is the recorded growth below the cut-off of 70%?
stdout: Fulfilled

stdin: Does the reported growth of the following compound sit strictly below 70%? O=C1/C(=C/c2ccccc2O)CC/C1=C\c1ccccc1O
stdout: Fulfilled

stdin: Dear reviewer, please state whether COc1ccc(/C=N/C2=C(C#N)C(c3ccccc3)c3ccc4ccccc4c3O2)cc1 (stereo not given) has growth strictly beneath 70%.
stdout: Fulfilled

stdin: Please determine if NC(=O)c1cccc(-n2ccc3cc(NC(=O)c4ccc(N5CCOCC5)c(C(F)(F)F)c4)ccc32)n1 is below 70% in terms of growth.
stdout: Not fulfilled
